All values here come from patent US6350731.

biological target: Rb 66; experiment: competitive ELISA on antiserum Rb 66; coated antigen not given
pIC50: −log10 of the molar value. Where no end group is shown, it is not given here.
property.measured: pIC50

Documented pIC50 of Ac-ISRRLIDRTNANFLVWPPC [GP10] : > 8.70

Documented pIC50 of Ac-ISRRLIDRTNANFLC (not fully specified; printed as Ac-25I-S-R-R-L-I-D-R-T-N-A-N-F-L38-C) [GP4] : > 8.70
